Each recorded value in this set is attributed to patent US6914045B2.

# Test system: Staphylococcus sp.
# protocol_text: in vitro antibacterial evaluation, MIC by broth dilution
# Assay type: cell-based
# experimental_parameters: broth dilution, 18 hours at 35° C.
Square brackets hold non-standard residues; d marks the D form. Peptide text beside a SMILES is read from it. * marks the point of attachment. ξ: configuration not given here. ξEnduracididine(βξ-OH,4'ξ) = N=C1NCC(C(O)C(N)C(=O)O)N1; X2 = OCC1OC(OC2C(CO)OC(*)C(O)C2O)C(O)C(O)C1O

compound	reported_relation	MIC Staphylococcus aureus (GC 4541) / µg/mL
COc1ccc(COCC2OC(OC3C(CO)OC(Oc4ccc(CC5NC(=O)C(C(C)c6ccccc6)NC(=O)CNC(=O)C(CO)NC(=O)C(C(O)C6CNC(=N)N6C6OC(CO)C(O)C(O)C6O)NC(=O)C(C(O)C6CNC(=N)N6)NC5=O)cc4)C(O)C3O)C(O)C(O)C2O)cc1F (stereo not drawn)	=	2
N=C1NCC(C(O)C2NC(=O)C(Cc3ccc(OC4OC(CO)C(OC5OC(CO)C(O)C(O)C5O)C(O)C4O)cc3)NC(=O)C(Cc3ccccc3)NC(=O)CNC(=O)C(CO)NC(=O)C(C(O)C3CNC(=N)N3)NC2=O)N1 (stereo not drawn) [Example 296] (cyclo(GFY(X2)[ξEnduracididine(βξ-OH,4'ξ)][ξEnduracididine(βξ-OH,4'ξ)]S); configuration not given here)	>	128
CC(c1ccccc1)C1NC(=O)CNC(=O)C(CO)NC(=O)C(C(O)C2CNC(=N)N2C2OC(CO)C(O)C(O)C2O)NC(=O)C(C(O)C2CNC(=N)N2)NC(=O)C(Cc2ccc(OC3OC(CO)C(OC4OC(CO)C(OCC=C(c5ccccc5)c5ccccc5)C(O)C4O)C(O)C3O)cc2)NC1=O (stereo not drawn) [Example 241a]	=	2

---

# Test system: Staphylococcus sp.
# protocol_text: in vitro antibacterial evaluation, MIC by broth dilution
# Format: cell-based
# experimental_parameters: broth dilution, 18 hours at 35° C.
Numbered stars: 1 amine (or outer) side, 2 acyl side, 3 side chain; on linkers, the order of the positions; unused ones are H or OH. Square brackets hold non-standard residues; d marks the D form. Peptide text beside a SMILES is read from it. * marks the point of attachment. ξ: configuration not given here. X1 = N=C1NCC(C(O)C(N[*:1])C(=O)[*:2])N1C1OC(CO)C(O)C(O)C1O; ξEnduracididine(βξ-OH,4'ξ) = N=C1NCC(C(O)C(N)C(=O)O)N1; X2 = OCC1OC(OC2C(CO)OC(*)C(O)C2O)C(O)C(O)C1O; Cha = N[CH](CC1CCCCC1)C(=O)O
List of MIC Coagulase Negative Staphylococcus (GC 4548) values.
value_type: MIC Coagulase Negative Staphylococcus (GC 4548) (µg/mL)

compound	reported_relation	experimental_value
CCCCCCCC1OCC2OC(OC3C(CO)OC(Oc4ccc(CC5NC(=O)C(C(C)c6ccccc6)NC(=O)CNC(=O)C(CO)NC(=O)C(C(O)C6CNC(=N)N6C6OC(CO)C(O)C(O)C6O)NC(=O)C(C(O)C6CNC(=N)N6)NC5=O)cc4)C(O)C3O)C(O)C(O)C2O1 (centres unmarked) [Example 109]	<	0.5
N=C1NCC(C(O)C2NC(=O)C(Cc3ccc(OC4OC(CO)C(OC5OC6COC7(OC6C6OC8(OC56)C5CC6CC(C5)CC8C6)C5CC6CC(C5)CC7C6)C(O)C4O)cc3)NC(=O)C(CC3CCCCC3)NC(=O)CNC(=O)C(CO)NC(=O)C(C(O)C3CNC(=N)N3C3OC(CO)C(O)C(O)C3O)NC2=O)N1 (centres unmarked) [Example 106b]	=	4
CCCCCC1OCC2OC(OC3C(CO)OC(Oc4ccc(CC5NC(=O)C(C(C)c6ccccc6)NC(=O)CNC(=O)C(CO)NC(=O)C(C(O)C6CNC(=N)N6C6OC(CO)C(O)C(O)C6O)NC(=O)C(C(O)C6CNC(=N)N6)NC5=O)cc4)C(O)C3O)C(O)C(O)C2O1 (centres unmarked) [Example 108]	<	0.5
CC(c1ccccc1)C1NC(=O)CNC(=O)C(CO)NC(=O)C(C(O)C2CN(c3ncccn3)C(=N)N2C2OC(CO)C(O)C(O)C2O)NC(=O)C(C(O)C2CNC(=Nc3ncccn3)N2)NC(=O)C(Cc2ccc(OC3OC(CO)C(OC4OC5COC6(OC5C(O)C4O)C4CC5CC(C4)CC6C5)C(O)C3O)cc2)NC1=O (centres unmarked) [Example 228]	=	16
CC(c1ccccc1)C1NC(=O)CNC(=O)C(CO)NC(=O)C(CC2CNC(=N)N2C2OC(CO)C(O)C(O)C2O)NC(=O)C(CC2CNC(=N)N2)NC(=O)C(Cc2ccc(OC3OC(CO)C(OC4OC(CO)C(O)C(O)C4OCc4ccc(OCc5ccccc5)cc4)C(O)C3O)cc2)NC1=O (centres unmarked) [Example 246c]	>	128
COc1ccc2cc(COC3C(CO)OC(OC4C(CO)OC(Oc5ccc(CC6NC(=O)C(C(C)c7ccccc7)NC(=O)CNC(=O)C(CO)NC(=O)C(CC7CNC(=N)N7C7OC(CO)C(O)C(O)C7O)NC(=O)C(CC7CNC(=N)N7)NC6=O)cc5)C(O)C4O)C(O)C3O)ccc2c1 (centres unmarked) [Example 245a]	=	1
N=C1NCC(C(O)C2NC(=O)C(Cc3ccc(OC4OC(CO)C(OC5OC(CO)C(O)C(O)C5O)C(O)C4O)cc3)NC(=O)C(CC3CCCCC3)NC(=O)CNC(=O)C(CO)NC(=O)C(C(O)C3CNC(=N)N3C3OC(CO)C(O)C(O)C3O)NC2=O)N1 (stereo not drawn) [Example 263] (cyclo(G[Cha]Y(X2)[ξEnduracididine(βξ-OH,4'ξ)][X1]S); configuration not given here)	=	32

---

# protocol_text: anatomic pathology (histopathology of heart and kidney) in mice
# Assay type: in vivo
# experimental_parameters: CD-1 mice, 20 mg/kg intravenously daily for 9 days, necropsy day 10, microscopic histopathology
value_type: Anatomical Pathology (Day 10), Kidney

compound	value_type	experimental_value
CC(c1ccccc1)C1NC(=O)CNC(=O)C(CO)NC(=O)C(C(O)C2CNC(=N)N2C2OC(CO)C(O)C(O)C2O)NC(=O)C(C(O)C2CNC(=N)N2)NC(=O)C(Cc2ccc(OC3OC(CO)C(OC4OC5COC(c6ccccc6)OC5C(O)C4O)C(O)C3O)cc2)NC1=O (centres unmarked)	Anatomical Pathology (Day 10), Kidney	+++
COc1ccc2cc(COCC3OC(OC4C(CO)OC(Oc5ccc(CC6NC(=O)C(C(C)c7ccccc7)NC(=O)CNC(=O)C(CO)NC(=O)C(C(O)C7CNC(=N)N7C7OC(CO)C(O)C(O)C7O)NC(=O)C(C(O)C7CNC(=N)N7)NC6=O)cc5)C(O)C4O)C(O)C(O)C3O)ccc2c1 (centres unmarked)	Anatomical Pathology (Day 10), Kidney	+++

---

Attribute: MIC Enterococcus faecium (GC 4557)
# System: Enterococcus sp.
# protocol_text: in vitro antibacterial evaluation, MIC by broth dilution
# Format: cell-based
# experimental_parameters: broth dilution, inoculum 5×10^5 CFU/mL, 18 hours at 35° C.; strain GC 4557

compound	unit_abbrev	reported_relation	MIC Enterococcus faecium (GC 4557)
CC(c1ccc(Cl)cc1)C1NC(=O)CNC(=O)C(CO)NC(=O)C(C(O)C2CNC(=N)N2C2OC(CO)C(O)C(O)C2O)NC(=O)C(C(O)C2CNC(=N)N2)NC(=O)C(Cc2ccc(OC3OC(CO)C(OC4OC5COC(C6CCCCC6)OC5C(O)C4O)C(O)C3O)cc2)NC1=O (stereo not shown)	µg/mL	=	2
CC(C)CC(=O)OC1C(O)C(OC2C(CO)OC(Oc3ccc(CC4NC(=O)C(C(C)c5ccccc5)NC(=O)CNC(=O)C(CO)NC(=O)C(C(O)C5CNC(=N)N5C5OC(CO)C(O)C(O)C5O)NC(=O)C(C(O)C5CNC(=N)N5)NC4=O)cc3)C(O)C2O)OC2COC3(OC21)C1CC2CC(C1)CC3C2 (stereo not shown)	µg/mL	=	4
CC(c1ccccc1)C1NC(=O)CNC(=O)C(CO)NC(=O)C(C(O)C2CNC(=N)N2C2OC(CO)C(O)C3OC(C)(C)OC32)NC(=O)C(C(O)C2CNC(=N)N2)NC(=O)C(Cc2ccc(OC3OC(CO)C(OC4OC(CO)C(O)C5OC(C)(C)OC45)C4OC(C)(C)OC34)cc2)NC1=O (stereo not shown) [Example 229a]	µg/mL	>	128
CSc1ccc(C2OCC3OC(OC4C(CO)OC(Oc5ccc(CC6NC(=O)C(C(C)c7ccccc7)NC(=O)CNC(=O)C(CO)NC(=O)C(C(O)C7CNC(=N)N7C7OC(CO)C(O)C(O)C7O)NC(=O)C(C(O)C7CNC(=N)N7)NC6=O)cc5)C(O)C4O)C(O)C(O)C3O2)cc1[N+](=O)[O-] (stereo not shown)	µg/mL	=	1
CC(c1ccccc1)C1NC(=O)CNC(=O)C(CO)NC(=O)C(C(O)C2CNC(=N)N2C2OC(CO)C(O)C(O)C2O)NC(=O)C(C(O)C2CNC(=N)N2)NC(=O)C(Cc2ccc(OC3OC(CO)C(OC4OC5COC6(CCCCC6)OC5C(O)C4O)C(O)C3O)cc2)NC1=O (stereo not shown)	µg/mL	=	4
CC(c1ccccc1)C1NC(=O)CNC(=O)C(CO)NC(=O)C(C(O)C2CNC(=N)N2C2OC(CO)C(O)C(O)C2O)NC(=O)C(C(O)C2CNC(=N)N2)NC(=O)C(Cc2ccc(OC3OC(CO)C(OC4OC5COC(c6cc7c(cc6Cl)OCO7)OC5C(O)C4O)C(O)C3O)cc2)NC1=O (stereo not shown)	µg/mL	=	2
CC(c1ccccc1)C1NC(=O)CNC(=O)C(CO)NC(=O)C(C(O)C2CNC(=N)N2C2OC(CO)C(O)C(O)C2O)NC(=O)C(C(O)C2CNC(=N)N2)NC(=O)C(Cc2ccc(OC3OC(CO)C(OC4OC5COC(c6ccc(C=Cc7ccccc7)cc6)OC5C(O)C4O)C(O)C3O)cc2)NC1=O (stereo not shown)	µg/mL	=	8
